Just for reference, ChEMBL document CHEMBL3407480 is where these values come from.

assay: Cytotoxicity against human SH-SY5Y cells assessed as inhibition of cell growth after 72 hrs by MTT assay; type: cell-based
Parameter: pIC50. Scope: all listed entries.
Keep it numeric: pIC50 is minus log10 of the concentration in mol/L.

O=c1sc2cc(S(=O)(=O)Nc3cccc4ccccc34)ccc2n1CCN1CCCCC1 ... 4.60
CN(C)CCn1c(=O)sc2cc(S(=O)(=O)N(C)c3ccccc3)ccc21 ... 4.04
CN(C)CCn1c(=O)sc2cc(S(=O)(=O)N(C)c3cccc4ccccc34)ccc21 ... 4.54
O=c1sc2cc(S(=O)(=O)Nc3ccccc3)ccc2n1CCN1CCCCC1 ... 4.76
CN(c1ccccc1)S(=O)(=O)c1ccc2c(c1)sc(=O)n2CCN1CCCCC1 ... 4.30
CN(C)CCn1c(=O)sc2cc(S(=O)(=O)Nc3cccc4ccccc34)ccc21 ... 4.34
O=c1sc2cc(S(=O)(=O)c3ccccc3)ccc2n1CCN1CCCCC1 ... 4.36
CN(C)CCn1c(=O)sc2cc(S(=O)(=O)c3ccccc3)ccc21 ... 4.06

-- ask # get_value(readout='pIC50', item= `CN(c1cccc2ccccc12)S(=O)(=O)c1ccc2c(c1)sc(=O)n2CCN1CCCC1` )
-- reply 3.99

-- ask # get_value(readout='pIC50', item= `CN(c1cccc2ccccc12)S(=O)(=O)c1ccc2c(c1)sc(=O)n2CCN1CCCCC1` )
-- reply 4.04

---

test: Cytotoxicity against human SH-SY5Y cells assessed as inhibition of cell growth after 72 hrs by MTT assay; assay type: cell-based
MEASURED PROPERTY: IC50 (µM)
Lab book: enter the figure in µM, no units written.

-- ask # get_value(readout='IC50', item= `O=c1sc2cc(S(=O)(=O)Nc3cccc4ccccc34)ccc2n1CCN1CCCC1` )
-- reply 68.6

-- ask # get_value(readout='IC50', item= `CN(c1ccccc1)S(=O)(=O)c1ccc2c(c1)sc(=O)n2CCN1CCCC1` )
-- reply 49.5

-- ask # get_value(readout='IC50', item= `O=c1sc2cc(S(=O)(=O)Nc3ccccc3)ccc2n1CCN1CCCC1` )
-- reply 10

---

assay: Cytotoxicity against human SH-SY5Y cells assessed as inhibition of cell growth at 100 uM after 72 hrs by MTT assay; assay type: cell-based; conditions: read-out: GI
MEASURED PROPERTY: inhibition at 72 h, 100 µM (%)
Lab book: enter the figure in %, no units written.

-- ask # get_value(readout='inhibition at 72 h, 100 µM', item= `CN(C)CCn1c(=O)sc2cc(NS(=O)(=O)c3ccc4ccccc4c3)ccc21` )
-- reply 17

-- ask # get_value(readout='inhibition at 72 h, 100 µM', item= `CN(C)CCn1c(=O)sc2cc(NS(=O)(=O)c3ccccc3)ccc21` )
-- reply 20

-- ask # get_value(readout='inhibition at 72 h, 100 µM', item= `O=c1sc2cc(NS(=O)(=O)c3ccccc3)ccc2n1CCN1CCCCC1` )
-- reply 39

-- ask # get_value(readout='inhibition at 72 h, 100 µM', item= `O=c1sc2cc(N(S(=O)(=O)c3ccccc3)S(=O)(=O)c3ccccc3)ccc2n1CCN1CCCC1` )
-- reply 19

-- ask # get_value(readout='inhibition at 72 h, 100 µM', item= `O=c1sc2cc(NS(=O)(=O)c3ccccc3)ccc2n1CCN1CCCC1` )
-- reply 25

-- ask # get_value(readout='inhibition at 72 h, 100 µM', item= `O=c1sc2cc(NS(=O)(=O)c3ccc4ccccc4c3)ccc2n1CCN1CCCC1` )
-- reply 28

-- ask # get_value(readout='inhibition at 72 h, 100 µM', item= `CN(C)CCn1c(=O)sc2cc(S(=O)(=O)Nc3ccccc3)ccc21` )
-- reply 0

-- ask # get_value(readout='inhibition at 72 h, 100 µM', item= `O=c1sc2cc(NS(=O)(=O)c3ccc4ccccc4c3)ccc2n1CCN1CCCCC1` )
-- reply 5

---

target: 5-hydroxytryptamine receptor 6 (Homo sapiens, UniProt P50406); experiment: Displacement of [3H]LSD from human 5-HT6 receptor expressed in HEK293 cell membranes at 100 nM incubated for 60 mins by radioligand binding assay
Sequence (P50406 whole entry): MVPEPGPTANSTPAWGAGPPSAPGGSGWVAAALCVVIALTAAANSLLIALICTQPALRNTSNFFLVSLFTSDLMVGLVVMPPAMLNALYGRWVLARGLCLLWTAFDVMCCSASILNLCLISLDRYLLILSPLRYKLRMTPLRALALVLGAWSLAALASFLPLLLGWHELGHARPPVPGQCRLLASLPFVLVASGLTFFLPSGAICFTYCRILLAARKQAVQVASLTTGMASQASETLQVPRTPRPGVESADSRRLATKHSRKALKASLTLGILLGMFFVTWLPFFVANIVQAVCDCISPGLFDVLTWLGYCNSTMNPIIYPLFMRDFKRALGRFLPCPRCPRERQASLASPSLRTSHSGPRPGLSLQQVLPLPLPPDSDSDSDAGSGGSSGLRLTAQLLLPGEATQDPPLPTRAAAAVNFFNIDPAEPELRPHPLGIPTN
If the reported inhibition equals or exceeds 10%, assign TRUE. If not, assign FALSE.

Here's what some known entries look like.
O=c1sc2cc(S(=O)(=O)Nc3cccc4ccccc34)ccc2n1CCN1CCCC1 ... FALSE
O=c1sc2cc(N(S(=O)(=O)c3ccccc3)S(=O)(=O)c3ccccc3)ccc2n1CCN1CCCC1 ... TRUE
CN(c1cccc2ccccc12)S(=O)(=O)c1ccc2c(c1)sc(=O)n2CCN1CCCCC1 ... TRUE
CN(C)CCn1c(=O)sc2cc(S(=O)(=O)Nc3ccccc3)ccc21 ... TRUE
O=c1sc2cc(S(=O)(=O)c3ccccc3)ccc2n1CCN1CCCCC1 ... TRUE
CN(C)CCn1c(=O)sc2cc(NS(=O)(=O)c3ccccc3)ccc21 ... FALSE

-- ask Check this molecule for inhibition at or above 10%: `O=c1sc2cc(S(=O)(=O)Nc3ccccc3)ccc2n1CCN1CCCC1`
-- reply TRUE

-- ask Check this molecule for inhibition at or above 10%: `CN(C)CCn1c(=O)sc2cc(S(=O)(=O)N(C)c3cccc4ccccc34)ccc21`
-- reply FALSE

-- ask Check this molecule for inhibition at or above 10%: `O=c1sc2cc(NS(=O)(=O)c3ccccc3)ccc2n1CCN1CCCCC1`
-- reply FALSE

-- ask Check this molecule for inhibition at or above 10%: `O=c1sc2cc(S(=O)(=O)Nc3ccccc3)ccc2n1CCN1CCCCC1`
-- reply FALSE

-- ask Check this molecule for inhibition at or above 10%: `O=c1sc2cc(NS(=O)(=O)c3ccccc3)ccc2n1CCN1CCCC1`
-- reply TRUE

-- ask Check this molecule for inhibition at or above 10%: `O=c1sc2cc(NS(=O)(=O)c3ccc4ccccc4c3)ccc2n1CCN1CCCCC1`
-- reply FALSE

-- ask Check this molecule for inhibition at or above 10%: `CN(C)CCn1c(=O)sc2cc(S(=O)(=O)N(C)c3ccccc3)ccc21`
-- reply FALSE

-- ask Check this molecule for inhibition at or above 10%: `CN(C)CCn1c(=O)sc2cc(S(=O)(=O)c3ccccc3)ccc21`
-- reply TRUE

---

target: 5-hydroxytryptamine receptor 6 (Homo sapiens); test: Displacement of [3H]LSD from human 5-HT6 receptor expressed in HEK293 cell membranes at 100 nM incubated for 60 mins by radioligand binding assay
Parameter: inhibition. Scope: all listed entries.
Lab book: enter the figure in %, no units written.

Example entries begin here.
CN(c1ccccc1)S(=O)(=O)c1ccc2c(c1)sc(=O)n2CCN1CCCC1 ... 10
CN(c1ccccc1)S(=O)(=O)c1ccc2c(c1)sc(=O)n2CCN1CCCCC1 ... 0
CN(c1cccc2ccccc12)S(=O)(=O)c1ccc2c(c1)sc(=O)n2CCN1CCCC1 ... 40
O=c1sc2cc(NS(=O)(=O)c3ccc4ccccc4c3)ccc2n1CCN1CCCC1 ... 0

-- ask # get_value(readout='inhibition', item= `O=c1sc2cc(S(=O)(=O)Nc3cccc4ccccc34)ccc2n1CCN1CCCCC1` )
-- reply 3

-- ask # get_value(readout='inhibition', item= `CN(C)CCn1c(=O)sc2cc(NS(=O)(=O)c3ccc4ccccc4c3)ccc21` )
-- reply 22
